I'd be grateful if you could share measured pIC50 for these entries.
Test Target: UniProtKB P22303
Sequence (P22303 whole entry): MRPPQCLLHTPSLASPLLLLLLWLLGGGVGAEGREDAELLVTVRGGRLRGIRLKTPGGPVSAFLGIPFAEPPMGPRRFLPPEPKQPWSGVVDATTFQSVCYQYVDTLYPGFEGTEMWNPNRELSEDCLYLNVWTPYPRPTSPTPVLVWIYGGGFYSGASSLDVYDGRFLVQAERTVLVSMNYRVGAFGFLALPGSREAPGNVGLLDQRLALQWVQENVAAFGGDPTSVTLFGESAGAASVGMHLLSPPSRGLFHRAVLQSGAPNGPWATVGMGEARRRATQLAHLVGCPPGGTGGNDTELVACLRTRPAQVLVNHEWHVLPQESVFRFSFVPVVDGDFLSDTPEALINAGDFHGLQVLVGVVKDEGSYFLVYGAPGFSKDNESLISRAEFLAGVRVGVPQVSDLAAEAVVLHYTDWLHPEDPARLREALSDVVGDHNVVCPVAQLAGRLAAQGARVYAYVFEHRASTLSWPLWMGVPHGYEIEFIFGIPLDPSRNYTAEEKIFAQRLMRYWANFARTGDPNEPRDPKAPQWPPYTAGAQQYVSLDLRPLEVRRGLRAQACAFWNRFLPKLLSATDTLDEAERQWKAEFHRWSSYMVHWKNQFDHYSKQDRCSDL
Test Summary: Inhibition of human recombinant AChE
Numbers only, as −log10 of the molar value.

[[record]]
structure_smiles = "COc1cc2cc(-c3ccc(CN(C)Cc4ccccc4[N+](=O)[O-])cc3)c(=O)oc2cc1OC"
result_number = 6.01


Record pIC50 per entry; entries follow.
1. COc1cc2occ(-c3ccc(CN(C)Cc4ccccc4)cc3)c(=O)c2cc1OC
2. COc1ccc2cc(-c3ccc(CN(C)Cc4ccccc4)cc3)c(=O)oc2c1
3. COc1cc2cc(-c3ccc(CN(C)Cc4ccc(C)cc4)cc3)c(=O)oc2cc1OC
4. CN(Cc1ccccc1)Cc1ccc(-c2cc3cc(N)ccc3oc2=O)cc1
5. COc1ccc(CN(C)Cc2ccc(-c3cc4cc(OC)c(OC)cc4oc3=O)cc2)cc1
6. COc1cccc(CN(C)Cc2ccc(-c3cc4cc(OC)c(OC)cc4oc3=O)cc2)c1
7. COc1ccc2cc(-c3cccc(CN(C)Cc4ccccc4)c3)c(=O)oc2c1

5.91
6.05
6.51
6.55
5.65
6.15
5.64
